Target: Ba/F3-TEL-SYK cells (Homo sapiens, UniProt P43405)
Construct: fused on or other part: N-terminal part of TEL (ETV6) with its oligomerising PNT/SAM domain, fused before the SYK part that carries the kinase domain; P41212 (Transcription factor ETV6)
Experiment: Ba/F3-TEL-SYK cell-based assay (CellTiter-Glo proliferation)
Details: 72 hr, read-out: BaF3 Cell assay IC50

| COMPOUND | GI50 |
| --- | --- |
| COc1cc(Nc2nc(-c3ccc4cn[nH]c4c3)cn3ncnc23)ccc1N1CCC(C)(O)CC1 | ≤ 50 nM |
| CCN1CCN(c2ccc(Nc3nc(-c4ccc5cn[nH]c5c4)cn4ncnc34)cc2OC)CC1 | ≤ 50 nM |
| COc1cc(Nc2nc(-c3ccc4cn[nH]c4c3)cn3ncnc23)ccc1N1CC2(COC2)C1 | 50 to 500 nM |
| CC(C)Oc1cc(Nc2nc(-c3ccc4cn[nH]c4c3)cn3ncnc23)ccc1N1CCOCC1 | 500 to 5000 nM |
| O=C1COc2cc(-c3cn4ncnc4c(Nc4ccc(N5CCOCC5)cc4)n3)ccc2N1 | 50 to 500 nM |
| O=C(O)c1ccc(NC(=O)c2cccc(-c3cn4ncnc4c(Nc4ccc(N5CCOCC5)cc4)n3)c2)cc1 | > 5000 nM |
| COc1ccc(Nc2nc(-c3ccc4cn[nH]c4c3)cn3ncnc23)cc1OC | ≤ 50 nM |
| COc1cc(Nc2nc(-c3ccc4cn[nH]c4c3)cn3ncnc23)ccc1N1CCN(C)CC1 | ≤ 50 nM |
| COc1cc(Nc2nc(-c3ccc4cn[nH]c4c3)cn3ncnc23)ccc1N1CCS(=O)(=O)CC1 | ≤ 50 nM |
| CC(C)N1C[C@@H]2C[C@@H]1CN2c1ccc(Nc2nc(-c3ccc4[nH]ccc4c3)cn3ncnc23)cc1 | 500 to 5000 nM |
| FC(F)Oc1cc(Nc2nc(-c3ccc4cn[nH]c4c3)cn3ncnc23)ccc1N1CCOCC1 | 50 to 500 nM |
| FC(F)(F)Oc1cc(Nc2nc(-c3ccc4cc[nH]c4c3)cn3ncnc23)ccc1N1CC2CC1CN2C1COC1 (stereo not shown) | > 5000 nM |
| CCOc1cc(Nc2nc(-c3ccc4cc[nH]c4c3)cn3ncnc23)ccc1N1CC2CC1CN2C1COC1 (stereo not shown) | 50 to 500 nM |
| COc1cc(Nc2nc(-c3ccc4cn[nH]c4c3)cn3ncnc23)ccc1N1CCN(C2COC2)CC1 | ≤ 50 nM |
| c1nc2c(Nc3ccc(N4CC5CC4CN5C4COC4)cc3)nc(-c3ccc4cc[nH]c4c3)cn2n1 (stereo not shown) | 500 to 5000 nM |
| COc1cc(Nc2nc(-c3ccc4cc[nH]c4c3)cn3ncnc23)ccc1N1CC2CC1CN2C1COC1 (stereo not shown) | 50 to 500 nM |
| COc1cc(Nc2nc(-c3ccc4cn[nH]c4c3)cn3ncnc23)ccc1N1CCOCC1 | ≤ 50 nM |
| COc1cc(Nc2nc(-c3ccc4c(c3)OC(C)(C)C(=O)N4)cn3ncnc23)ccc1N1CCOCC1 | 50 to 500 nM |
| CCOc1cc(Nc2nc(-c3ccc4cn[nH]c4c3)cn3ncnc23)ccc1N1CCOCC1 | 50 to 500 nM |

----------
Target: SYK kinase (Homo sapiens)
Experiment: SYK kinase assay (HTRF KinEASE-TK)
Assay type: biochemical
Details: class symbols, read-out: Syk inhibition IC50
pIC50: −log10 of the molar value.

| STRUCTURE STRING | pIC50 |
| --- | --- |
| CC(C)N1C[C@@H]2C[C@@H]1CN2c1ccc(Nc2nc(-c3ccc4[nH]ccc4c3)cn3ncnc23)cc1 | 6.30 to 7.30 |
| COc1cc(Nc2nc(-c3ccc4c(c3)OCC(=O)N4)cn3ncnc23)ccc1N1CCOCC1 | ≥ 7.30 |
| CCS(=O)(=O)N1CCN(c2ccc(Nc3nc(-c4ccc5cn[nH]c5c4)cn4ncnc34)cc2)CC1 | ≥ 7.30 |
